# Test system: U937 cells
# EXPERIMENT DESCRIPTION: MTT antiproliferative assay, U937
# PROTOCOL CONDITIONS: Homo sapiens, U-937, 48 h, read-out: U937 IC50
pIC50: −log10 of the molar value.
OBSERVABLE: pIC50

O=C(CCCc1cn(Cc2cc(C(F)(F)F)cc(C(F)(F)F)c2)c2ccccc12)Nc1ccc(C(=O)NO)cc1
5.34
O=C(CCCc1cn(Cc2ccc(F)c(F)c2)c2ccccc12)Nc1ccc(C(=O)NO)cc1
5.90
O=C(CCCc1cn(Cc2cccc(F)c2)c2ccccc12)Nc1ccc(C(=O)NO)cc1
6.02
O=C(CCCc1cn(Cc2ccc(C(F)(F)F)cc2)c2ccccc12)Nc1ccc(C(=O)NO)cc1
6.01

[A] O=C(CCCc1c[nH]c2ccccc12)Nc1ccc(C(=O)NO)cc1
[B] O=C(CCCc1cn(Cc2cccc(Br)c2)c2ccccc12)Nc1ccc(C(=O)NO)cc1
Query: Sorting ascending by pIC50, which comes first: A or B ? Write down the label of the entry you select.
Reply: B
(B: 5.71, A: 5.99)
